kon values by entry
# Target desc: T1, His-tagged human TIGIT (human, UniProt Q495A1 22-141)
# T1 construct: SPR analyte; also called human TIGIT protein; not shown: His tag
# T1 sequence: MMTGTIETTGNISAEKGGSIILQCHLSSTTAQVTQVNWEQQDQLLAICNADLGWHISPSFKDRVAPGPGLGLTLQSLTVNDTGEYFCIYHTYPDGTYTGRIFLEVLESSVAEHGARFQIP
# Assay method text: SPR experiment 2, IgG from HEK293 supernatant captured
Dear colleague, please return just the value in M⁻¹ s⁻¹, with no unit written.

humanized TIGIT-19 antibody 19VH4.M4 + 19VL1 (antibody, V domains shown, Full-length IgG, tested as HEK293 supernatant) VH: QVQLVQSGAEVKKPGASVKVSCKASGYAFSRYSMYWVRQAPGQGLEWIAFIDPYSGGSTYNQRFRGKATLTVDTSISTAYMELSRLRSDDTAVYYCARGGDYGWYLGVWGQGTLVTVSS VL: DIQMTQSPSSLSASVGDRVTITCRPSENIYTYLSWYQQKPGKAPKLLIYNAKTLPEGVPSRFSGSGSGTDFTLTISSLQPEDFATYYCQHHYGNPLTFGQGTKVEIK | 1.1e+06

The binder listed as humanized TIGIT-19 antibody 19VH4.M5 + 19VL1 (antibody, V domains shown, Full-length IgG, tested as HEK293 supernatant) VH: QVQLVQSGAEVKKPGASVKVSCKASGYAFSRYSMYWVRQAPGQGLEWIAFIDPYNGGSTYAQKFQGKATLTVDTSISTAYMELSRLRSDDTAVYYCARGGDYGWYLGVWGQGTLVTVSS VL: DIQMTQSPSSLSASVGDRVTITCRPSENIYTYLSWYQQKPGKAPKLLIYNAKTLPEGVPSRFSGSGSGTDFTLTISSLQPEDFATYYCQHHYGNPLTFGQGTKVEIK has a reported kon of 1.3e+06

The binder listed as humanized TIGIT-19 antibody 19VH4.M6 + 19VL1 (antibody, V domains shown, Full-length IgG, tested as HEK293 supernatant) VH: QVQLVQSGAEVKKPGASVKVSCKASGYTFTRYSMYWVRQAPGQGLEWIAFIDPYSGGSTYNQRFRGKATLTVDTSISTAYMELSRLRSDDTAVYYCARGGDYGWYLGVWGQGTLVTVSS VL: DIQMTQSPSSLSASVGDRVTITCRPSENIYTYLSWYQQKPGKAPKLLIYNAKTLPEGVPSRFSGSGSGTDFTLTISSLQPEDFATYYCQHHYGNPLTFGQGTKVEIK has a reported kon of 1e+06
